TEST_TARGET: SHP2 (Homo sapiens (Human), UniProt Q06124)
Sequence (Q06124 whole entry): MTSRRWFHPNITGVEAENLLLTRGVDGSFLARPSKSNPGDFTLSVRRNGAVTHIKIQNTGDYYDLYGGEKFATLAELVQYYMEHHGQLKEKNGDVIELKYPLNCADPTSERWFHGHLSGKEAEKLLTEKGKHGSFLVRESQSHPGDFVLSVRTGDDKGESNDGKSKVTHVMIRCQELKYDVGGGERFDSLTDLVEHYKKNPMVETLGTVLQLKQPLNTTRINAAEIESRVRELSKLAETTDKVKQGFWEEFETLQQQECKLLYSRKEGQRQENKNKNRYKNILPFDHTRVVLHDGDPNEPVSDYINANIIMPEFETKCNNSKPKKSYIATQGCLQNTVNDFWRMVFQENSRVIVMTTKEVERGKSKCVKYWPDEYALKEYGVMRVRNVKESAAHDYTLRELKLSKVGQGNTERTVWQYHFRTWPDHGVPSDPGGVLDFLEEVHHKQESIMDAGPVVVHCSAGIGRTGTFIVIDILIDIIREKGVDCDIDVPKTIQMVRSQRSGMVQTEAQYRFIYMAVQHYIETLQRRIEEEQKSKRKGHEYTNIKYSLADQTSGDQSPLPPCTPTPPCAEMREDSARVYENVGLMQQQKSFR
PROCEDURE_DETAILS: SHP2 Biochemical Assay (DiFMUP conversion, pIRS1 activating peptide)
TEST_PARAMETERS: DiFMUP substrate, 0.25 μM pIRS1 peptide, 30 min pre-incubation; average where more than one data point; read-out: SHP2 (IC50)
Catalogue of pIC50 readings, one per entry.
pIC50 is defined as minus the log10 of a concentration measured in mol/L.

Below are worked cases with known answers.
So for Cc1nc2c(-c3ccc4ncc(N(C)C)nc4c3Cl)n[nH]c2nc1N1[C@@H]2CC[C@H]1C[C@@H](N)C2 [Example 136] , the logged pIC50 turned out to be 8.05

So for Cn1cc2c(Cl)c(-c3c[nH]c4nc(N5[C@H]6CC[C@@H]5[C@@H](F)[C@@H](N)C6)cnc34)ccc2n1 [Example 64] , the logged pIC50 turned out to be 8.11

So for CNC(=O)Cn1cc2c(Cl)c(-c3c[nH]c4nc(N5[C@@H]6CC[C@H]5C[C@@H](N)C6)cnc34)ccc2n1 [Example 57] , the logged pIC50 turned out to be 7.64

Others:
So for Cn1nc2ccc(-c3c[nH]c4nc(N5[C@@H]6CC[C@H]5C[C@@H](N)C6)cnc34)c(Cl)c2n1 [Example 51] , the logged pIC50 turned out to be 7.54

So for Cn1cc2c(Cl)c(-c3c[nH]c4nc(N5[C@@H]6CCC[C@H]5C[C@@H](N)C6)cnc34)ccc2n1 [Example 6] , the logged pIC50 turned out to be 8.05

So for CCn1cc2c(Cl)c(-c3n[nH]c4nc(N5[C@H]6CC[C@@H]5[C@@H](F)[C@@H](N)C6)c(C)nc34)ccc2n1 [Example 92] , the logged pIC50 turned out to be 8.08

So for COc1cnc2ccc(-c3n[nH]c4nc(N5[C@@H]6CC[C@H]5C[C@@](C)(N)C6)c(CO)nc34)c(Cl)c2n1 [Example 134] , the logged pIC50 turned out to be 8.00
